Tested on: Saccharomyces cerevisiae;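 also: PSI is a weighted mean of sequencing reads over stability bins, variants kept only with over 10 reads, mCherry proximal and sfGFP distal, peptide attached via GGGS linker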
EXPERIMENT_DESCRIPTION: protein stability index of tFT-peptide fusion (C-terminal peptide) (PSI (0-1 scale)); higher = more stable (slower turnover)
RECORDED_CONDITIONS: genetic background: wild type; temperature: 30 C
Mark 0.0 for protein stability index values under 0.7, and 1.0 for everything at or above.

Look over these answered cases.
ENTRY_SEQUENCE	LABEL_VALUE
GLGVVHGYFLVE	0.0
VGSFVGSREGVW	0.0
VGLLFGWVWSLW	0.0

Prompt line: Please indicate if the recorded protein stability index for YPGMFLQLVWWI meets or exceeds 0.7.
Response line: 0.0

Prompt line: Please indicate if the recorded protein stability index for SKSRGVIVTVMV meets or exceeds 0.7.
Response line: 0.0

Prompt line: Please indicate if the recorded protein stability index for GRLLVSVFEVVH meets or exceeds 0.7.
Response line: 0.0

Prompt line: Please indicate if the recorded protein stability index for PTPGRSPKRLPE meets or exceeds 0.7.
Response line: 1.0

Prompt line: Please indicate if the recorded protein stability index for KRSIVSTDKDRY meets or exceeds 0.7.
Response line: 0.0
